- Tested on: B16.F10
- method-summary: Growth inhibition by peptide-doxorubicin conjugates (MTT, 48 hours)
- Format: cell-based, murine
- condition-summary: Mus musculus, read-out: molar concentration giving 50% inhibition of the growth of the cells
property-measured: IC50

Record COc1cccc2c1C(=O)c1c(O)c3c(c(O)c1C2=O)C[C@@](O)(C(=O)CO)C[C@@H]3O[C@H]1C[C@H](N)[C@H](O)[C@H](C)O1 has B16.F10 IC50 equal to 100 nM

---

- method-summary: ELISA fixation of biotinylated peptides on sensitized plates
- Format: binding
- condition-summary: read-out: avidity (Kd), quantity of peptides necessary to obtain 50% fixation, Heparin; Table 5
- Protocol: The capacity of peptides SEQ ID NO: 1 to 21 to attach themselves to DNA and heparin is evaluated on ELISA plates sensitized with DNA or heparin. Dilutions of biotinylated peptides are deposited on the plates and their fixation is shown using streptavidin conjugated with peroxidase. […] The avidity of each of the peptides for DNA or heparin is evaluated by the quantity (×10^−6 M) of peptides necessary to obtain 50% fixation.
Where no end group is shown, it is not given here.
property-measured: Kd (µM)
Numeric only. Scale: µM

// solved cases for Kd follow
>>> result("VKRGLKLVKRGLKLVKRGLKL [SEQ ID NO: 3]")
0.041
>>> result("LRRERQSRLRRERSQSR [SEQ ID NO: 39]")
0.1

Measured Kd of GRPRESGKKRKRKRLKP [SEQ ID NO: 21] : 0.016

Measured Kd of YRSRKYSSWYYALKR [SEQ ID NO: 34] : 0.045

Measured Kd of GKRKKKGKLGKKRDP [SEQ ID NO: 30] : 0.054

Measured Kd of RKKRRRGDRKKRRRGD [SEQ ID NO: 28] : 0.407

Measured Kd of RKGFYKRKQCKP [SEQ ID NO: 20] : 0.07

---

- Tested on: 3T3
- method-summary: Internalization of covalent peptide-peroxidase conjugates;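 also: Peptide-peroxidase conjugate at 0.2 µg/mL for 2 hours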
- Type: cell-based, mouse
- condition-summary: Table 9, 0.2 μg/ml conjugate, 2 hours
Where no end group is shown, it is not given here.
property-measured: Internalization of Peptide-peroxidase
Be sure to follow the number with its unit.

// solved cases for Internalization of Peptide-peroxidase follow
>>> result("VKRGLKLRHVRPRVTRMDV (listed as Homo sapiens) [SEQ ID NO: 10]")
"35 pg/10^3 cells"
>>> result("GRPRESGKKRKRKRLKP [SEQ ID NO: 21]")
"83.7 pg/10^3 cells"
>>> result("VKRGLKLVKRGLKLVKRGLKL [SEQ ID NO: 3]")
"24.6 pg/10^3 cells"

Measured Internalization of Peptide-peroxidase of QGKSKREKKDRVF [SEQ ID NO: 37] : 5.7 pg/10^3 cells

Measured Internalization of Peptide-peroxidase of AKTGKRKRSG [SEQ ID NO: 36] : 20.3 pg/10^3 cells

Measured Internalization of Peptide-peroxidase of GKRKKKGKLGKKRDP [SEQ ID NO: 30] : 48.8 pg/10^3 cells

Measured Internalization of Peptide-peroxidase of GLKKNGSCKRGPR [SEQ ID NO: 33] : 7.6 pg/10^3 cells

Measured Internalization of Peptide-peroxidase of YRSRKYSSWYYALKR [SEQ ID NO: 34] : 9 pg/10^3 cells
